Origin of the recorded values: ChEMBL document CHEMBL3407379

Tested on: DU-145
Test: Cytotoxicity against human DU145 cells assessed as cell viability after 48 hrs by MTT assay
Format: functional, cell-based
Details: DU-145, 48 h
Observation type: IC50 (µM)
Answer with a number only, understood to be in µM.

Task: Bench note: what IC50 did C=C1CCC[C@]2(C)CCC(c3cn(-c4cccc(OC)c4)nn3)=CC[C@@]12C show?
Result: 38.9

Task: Then C=C1CCC[C@]2(C)CCC(c3cn(-c4cccc([N+](=O)[O-])c4)nn3)=CC[C@@]12C ?
Result: 62.5

Task: And then C=C1CCC[C@]2(C)CCC(c3cn(-c4ccc(C(C)=O)cc4)nn3)=CC[C@@]12C , what is it?
Result: 51.7

Task: Another: C=C1CCC[C@]2(C)CCC(c3cn(-c4cc(OC)c(OC)cc4OC)nn3)=CC[C@@]12C
Result: 49.4

Task: Repeat for the following compound: C=C1CCC[C@]2(C)CCC(c3cn(-c4ccc(OC)cc4)nn3)=CC[C@@]12C
Result: 58.9

Task: Another: CC1(C)CCC[C@]1(C)c1ccc(C=O)cc1
Result: 260

Task: Input C=C1CCC[C@]2(C)CCC(c3cn(-c4ccc(I)cc4)nn3)=CC[C@@]12C
Result: 145

Task: COc1cccc2c1C(=O)c1c(O)c3c(c(O)c1C2=O)C[C@@](O)(C(=O)CO)C[C@@H]3O[C@H]1C[C@H](N)[C@H](O)[C@H](C)O1 , same question.
Result: 5.3

Task: What do you have for C=C1CCC[C@]2(C)CCC(c3cn(-c4ccc(Cl)cc4)nn3)=CC[C@@]12C ?
Result: 26
